Every entry's value here was drawn from ChEMBL document CHEMBL1132460.

Target: Neutrophil collagenase (Homo sapiens, UniProt P22894)
Sequence (P22894 whole entry): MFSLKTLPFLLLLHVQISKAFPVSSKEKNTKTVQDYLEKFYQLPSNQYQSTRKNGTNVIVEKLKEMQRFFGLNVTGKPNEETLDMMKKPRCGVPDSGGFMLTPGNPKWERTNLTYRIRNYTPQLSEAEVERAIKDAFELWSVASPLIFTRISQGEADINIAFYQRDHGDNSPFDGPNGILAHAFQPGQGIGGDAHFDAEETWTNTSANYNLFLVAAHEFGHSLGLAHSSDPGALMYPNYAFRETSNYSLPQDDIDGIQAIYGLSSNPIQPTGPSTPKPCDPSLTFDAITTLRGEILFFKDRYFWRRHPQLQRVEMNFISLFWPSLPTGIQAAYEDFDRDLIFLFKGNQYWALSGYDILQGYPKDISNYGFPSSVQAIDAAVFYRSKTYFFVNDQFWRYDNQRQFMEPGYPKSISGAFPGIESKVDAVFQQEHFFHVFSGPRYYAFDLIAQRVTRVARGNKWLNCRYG
Experiment: Inhibitory concentration against human matrix metalloprotease-8 (human neutrophil collagenase, MMP-8)
log10 IC50 values by entry
readout: log10 IC50 (log10 of the value in nM)

1. COC(=O)c1csc(S(=O)(=O)N2Cc3ccccc3CC2C(=O)NO)c1OC (stereo not given)    1.90
2. O=C(NO)C1Cc2ccccc2CN1S(=O)(=O)c1cc(Br)c(Br)s1 (stereo not given)    2.70
3. CC(C)(C)OC(=O)Nc1ccc2c(c1)CN(S(=O)(=O)c1ccc(-c3ccc(F)cc3)cc1)C(C(=O)NO)C2 (stereo not given)    1.00
4. COc1ccc(S(=O)(=O)Oc2ccc3c(c2)CN(S(=O)(=O)c2ccc(OC)cc2)C(C(=O)NO)C3)cc1 (stereo not given)    0.90
5. CCCCCCCCCCCCCCCCS(=O)(=O)N1Cc2ccccc2CC1C(=O)NO (stereo not given)    3.48
6. O=C(NO)C1Cc2ccccc2CN1S(=O)(=O)CCc1ccncc1 (stereo not given)    1.48
7. O=C(NO)C1Cc2ccccc2CN1S(=O)(=O)c1ccc(-c2ccc(Cl)cc2)cc1 (stereo not given)    0.48
8. O=C(NO)C1Cc2ccccc2CN1S(=O)(=O)c1ccc(C(F)(F)F)cc1 (stereo not given)    1.70
9. COc1ccc(S(=O)(=O)N2Cc3cc(NC(=O)OC(C)(C)C)ccc3CC2C(=O)NO)cc1 (stereo not given)    0.48
10. O=C(NO)C1Cc2ccccc2CN1S(=O)(=O)Cc1ccc(-c2ccccn2)s1 (stereo not given)    0.30

---

Molecular target: Stromelysin-1 (Homo sapiens)
Sequence (P08254 whole entry): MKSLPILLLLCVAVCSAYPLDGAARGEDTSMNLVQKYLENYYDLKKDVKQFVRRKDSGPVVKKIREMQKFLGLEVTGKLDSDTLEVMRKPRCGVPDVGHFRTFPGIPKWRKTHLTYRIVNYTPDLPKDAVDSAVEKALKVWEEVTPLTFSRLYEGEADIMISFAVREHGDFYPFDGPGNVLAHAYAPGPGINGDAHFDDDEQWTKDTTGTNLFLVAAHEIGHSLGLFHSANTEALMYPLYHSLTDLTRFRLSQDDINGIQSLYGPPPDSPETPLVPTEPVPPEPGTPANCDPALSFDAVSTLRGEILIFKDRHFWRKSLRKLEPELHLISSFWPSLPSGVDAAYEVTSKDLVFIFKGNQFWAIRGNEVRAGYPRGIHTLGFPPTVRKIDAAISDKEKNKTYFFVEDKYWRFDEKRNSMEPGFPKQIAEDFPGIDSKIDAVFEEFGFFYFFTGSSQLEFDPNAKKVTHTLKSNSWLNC
Experiment: Inhibitory concentration against human matrix metalloprotease-3 (MMP-3)
Conditions: read-out: IC50
pIC50: −log10 of the molar value.
readout: pIC50

1. O=C(Nc1ccc(S(=O)(=O)N2Cc3ccccc3CC2C(=O)NO)cc1)OCc1ccccc1 (stereo not drawn)    6.40
2. O=C(NO)C1Cc2ccccc2CN1S(=O)(=O)CCc1ccncc1 (stereo not drawn)    6.05
3. O=C(NO)C1Cc2ccccc2CN1S(=O)(=O)c1ccc(-c2ccon2)s1 (stereo not drawn)    7.30
4. CC(C)(C)OC(=O)Nc1ccc2c(c1)CC(C(=O)O)N(S(=O)(=O)c1ccc(-c3ccc(F)cc3)cc1)C2 (stereo not drawn)    6.40
5. O=C(NO)C1Cc2ccccc2CN1S(=O)(=O)c1ccc(OCc2ccc(F)cc2)cc1 (stereo not drawn)    7.70
6. O=C(c1ccccc1)c1ccc(S(=O)(=O)N2Cc3ccccc3CC2C(=O)O)cc1 (stereo not drawn)    5.52
7. O=C(O)C1Cc2ccccc2CN1S(=O)(=O)c1ccc(Br)cc1 (stereo not drawn)    5.30
8. O=C(O)C1Cc2ccccc2CN1S(=O)(=O)c1ccc(-c2nc3ccccc3o2)cc1 (stereo not drawn)    6.10
9. O=C(O)[C@H]1Cc2ccccc2CN1S(=O)(=O)c1ccc(-c2ccc(F)cc2)cc1    6.40
10. CNC(=O)c1ccc(Oc2ccc(S(=O)(=O)N3Cc4ccccc4CC3C(=O)O)cc2)cc1 (stereo not drawn)    6.52
11. COc1ccc(S(=O)(=O)N2Cc3cc(NC(=O)[C@H](C)N)ccc3CC2C(=O)NO)cc1 (stereo partly drawn)    7.52
12. O=C(O)C1Cc2ccccc2CN1S(=O)(=O)c1ccc(Sc2ccccc2)cc1 (stereo not drawn)    5.70
13. COc1ccc(S(=O)(=O)N2Cc3cc(O)ccc3CC2C(=O)NO)cc1 (stereo not drawn)    8.00

---

Target: Neutrophil collagenase (Homo sapiens)
Experiment: Inhibitory concentration against human matrix metalloprotease-8 (human neutrophil collagenase, MMP-8)
pIC50: −log10 of the molar value.
pIC50 vs 7: at or above is True, below is False.

1) O=C(c1ccccc1)c1ccc(S(=O)(=O)N2Cc3ccccc3CC2C(=O)NO)cc1 (stereo unspecified)    True
2) COc1ccc(S(=O)(=O)N2Cc3cc(NC(=O)[C@H](C)NC(=O)OC(C)(C)C)ccc3CC2C(=O)NO)cc1 (stereo partly specified)    True
3) O=C(NO)C1Cc2ccccc2CN1S(=O)(=O)c1ccc2[nH]c(-c3ccccc3)nc2c1 (stereo unspecified)    True
4) O=C(Nc1cccc(S(=O)(=O)N2Cc3ccccc3CC2C(=O)NO)c1)c1ccccc1O (stereo unspecified)    False
5) O=C(O)C1Cc2ccccc2CN1S(=O)(=O)c1ccc(Oc2ccccc2)cc1 (stereo unspecified)    True
6) O=C(NO)C1Cc2ccccc2CN1S(=O)(=O)Cc1ccccc1 (stereo unspecified)    False

---

Molecular target: Stromelysin-1 (Homo sapiens)
Experiment: Inhibitory concentration against human matrix metalloprotease-3 (MMP-3)
Settings: read-out: IC50
pIC50: −log10 of the molar value.
readout: pIC50

1) O=C(NO)C1Cc2ccccc2CN1S(=O)(=O)Cc1ccc(-c2ccccn2)s1 (stereo unspecified)    7.70
2) CN(C)c1cccc2c(S(=O)(=O)N3Cc4ccccc4CC3C(=O)NO)cccc12 (stereo unspecified)    6.40
3) O=C(O)C1Cc2ccc(O)cc2CN1S(=O)(=O)c1ccc(-c2ccc(Cl)cc2)cc1 (stereo unspecified)    6.70
4) COc1ccc(S(=O)(=O)Oc2ccc3c(c2)CN(S(=O)(=O)c2ccc(OC)cc2)C(C(=O)NO)C3)cc1 (stereo unspecified)    7.52
5) O=C(NO)C1Cc2ccccc2CN1S(=O)(=O)c1ccc(C(F)(F)F)cc1 (stereo unspecified)    6.30
6) COc1ccc(OC(=O)Nc2cccc(S(=O)(=O)N3Cc4ccccc4CC3C(=O)NO)c2)cc1 (stereo unspecified)    5.52
7) O=C(NO)C1Cc2ccccc2CN1S(=O)(=O)c1ccc(Oc2ccccc2)cc1 (stereo unspecified)    7.70
8) O=C(O)C1Cc2ccccc2CN1S(=O)(=O)c1ccc(-c2ccon2)s1 (stereo unspecified)    5.70
9) O=C(NO)C1Cc2ccccc2CN1S(=O)(=O)c1ccc2[nH]c(-c3ccccc3)nc2c1 (stereo unspecified)    6.30
10) CN(C)c1ccc(Oc2ccc(S(=O)(=O)N3Cc4ccccc4CC3C(=O)NO)cc2)cc1 (stereo unspecified)    7.52
11) O=C(NO)C1Cc2ccccc2CN1S(=O)(=O)c1ccc(N2CCOCC2)cc1 (stereo unspecified)    6.52
